The following compounds are shown together with reported log10(EC50) values.
Target: UniProt P35372
Sequence (P35372 whole entry): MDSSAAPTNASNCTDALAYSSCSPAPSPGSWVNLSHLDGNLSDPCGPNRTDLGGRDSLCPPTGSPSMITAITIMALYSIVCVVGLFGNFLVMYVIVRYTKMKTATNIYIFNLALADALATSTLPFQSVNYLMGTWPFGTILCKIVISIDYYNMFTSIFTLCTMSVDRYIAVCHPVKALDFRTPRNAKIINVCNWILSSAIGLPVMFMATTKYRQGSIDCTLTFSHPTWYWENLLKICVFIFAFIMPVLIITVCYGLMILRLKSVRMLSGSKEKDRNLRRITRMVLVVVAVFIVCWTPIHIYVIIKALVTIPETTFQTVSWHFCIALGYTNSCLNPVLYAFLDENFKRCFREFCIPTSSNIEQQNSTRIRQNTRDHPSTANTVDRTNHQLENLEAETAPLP
Experiment: [35S]GTPγS functional assay (agonist mode) at MOR
Format: biochemical
Details: [35S]GTPγS MOR EC50 ± SEM
PROPERTY MEASURED: log10(EC50) (log10 of the value in µM)

1. N=C(N)Nc1cccc(C(=C2CCN(Cc3ccccc3)CC2)c2cccc(O)c2)c1 [Compound 13a]; -1.55
2. N=C(N)Nc1ccc(C(=C2CCN(Cc3ccccc3)CC2)c2ccccc2)cc1 [Compound 22b]; -0.24
3. N=C(N)Nc1cccc(C(=C2CCN(Cc3ccccc3)CC2)c2ccccc2)c1 [Compound 22a]; -0.99
4. N=C(N)Nc1ccc(C(=C2CCN(Cc3ccccc3)CC2)c2cccc(O)c2)cc1 [Compound 13b]; 0.16
5. N=C(N)Nc1cccc(C(=C2CCN(Cc3ccccc3)CC2)c2ccc(O)cc2)c1 [Compound 14a]; -0.38

###

Test: In vivo pharmacokinetic study, intravenous
Design: species or system Sprague Dawley rats
Conditions: male, Sprague Dawley, plasma, iv; 5 mg/kg i.v., rat, mean (n = 6) ± SEM
PROPERTY MEASURED: Vd (L)

1) N=C(N)Nc1ccc(C(=C2CCN(Cc3ccccc3)CC2)c2ccccc2)cc1 [Compound 22b]; 2

###

Target: DOR (Homo sapiens, UniProt P41143)
Sequence (P41143 whole entry): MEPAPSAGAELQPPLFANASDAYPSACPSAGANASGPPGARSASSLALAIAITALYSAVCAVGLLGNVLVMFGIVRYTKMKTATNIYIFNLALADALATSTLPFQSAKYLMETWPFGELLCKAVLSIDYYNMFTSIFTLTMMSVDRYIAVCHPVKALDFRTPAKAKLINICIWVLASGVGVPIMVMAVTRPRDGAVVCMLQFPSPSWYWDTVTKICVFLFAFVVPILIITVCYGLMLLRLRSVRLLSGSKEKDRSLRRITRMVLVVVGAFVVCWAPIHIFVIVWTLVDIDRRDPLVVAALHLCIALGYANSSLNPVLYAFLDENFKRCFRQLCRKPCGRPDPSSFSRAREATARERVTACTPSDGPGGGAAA
Assay: Radioligand competition binding at DOR
Conditions: read-out: Receptor Binding, Ki ± SEM DOR
PROPERTY MEASURED: log10 Ki (log10 of the value in nM)

1. N=C(N)Nc1ccc(C(=C2CCN(Cc3ccccc3)CC2)c2ccccc2)cc1 [Compound 22b]; 1.06
2. N=C(N)Nc1cccc(C(=C2CCN(Cc3ccccc3)CC2)c2ccc(O)cc2)c1 [Compound 14a]; 0.37
3. N=C(N)Nc1ccc(C(=C2CCN(Cc3ccccc3)CC2)c2cccc(O)c2)cc1 [Compound 13b]; 0.22
4. N=C(N)Nc1cccc(C(=C2CCN(Cc3ccccc3)CC2)c2ccccc2)c1 [Compound 22a]; 0.53
5. N=C(N)Nc1cccc(C(=C2CCN(Cc3ccccc3)CC2)c2cccc(O)c2)c1 [Compound 13a]; -0.32

###

Molecular target: UniProt P41143
Assay: [35S]GTPγS functional assay (agonist mode) at DOR
Format: biochemical
Details: GTPγS Delta Agonist Functional Assay EC50 (Figure S2 curve fit), Figure S2; axis Log(M); DPDPE run beside each compound
PROPERTY MEASURED: EC50

1) N=C(N)Nc1cccc(C(=C2CCN(Cc3ccccc3)CC2)c2ccccc2)c1 [Compound 22a]; 2.56e-07 M
2) N=C(N)Nc1ccc(C(=C2CCN(Cc3ccccc3)CC2)c2cccc(O)c2)cc1 [Compound 13b]; 9.61e-09 M
3) N=C(N)Nc1cccc(C(=C2CCN(Cc3ccccc3)CC2)c2ccc(O)cc2)c1 [Compound 14a]; 4.55e-07 M

###

Molecular target: hNPFF2-R (Homo sapiens, UniProt Q9Y5X5)
Construct: expressed in transfected cells; host or cells: CHO cells (membranes)
Sequence (Q9Y5X5 whole entry): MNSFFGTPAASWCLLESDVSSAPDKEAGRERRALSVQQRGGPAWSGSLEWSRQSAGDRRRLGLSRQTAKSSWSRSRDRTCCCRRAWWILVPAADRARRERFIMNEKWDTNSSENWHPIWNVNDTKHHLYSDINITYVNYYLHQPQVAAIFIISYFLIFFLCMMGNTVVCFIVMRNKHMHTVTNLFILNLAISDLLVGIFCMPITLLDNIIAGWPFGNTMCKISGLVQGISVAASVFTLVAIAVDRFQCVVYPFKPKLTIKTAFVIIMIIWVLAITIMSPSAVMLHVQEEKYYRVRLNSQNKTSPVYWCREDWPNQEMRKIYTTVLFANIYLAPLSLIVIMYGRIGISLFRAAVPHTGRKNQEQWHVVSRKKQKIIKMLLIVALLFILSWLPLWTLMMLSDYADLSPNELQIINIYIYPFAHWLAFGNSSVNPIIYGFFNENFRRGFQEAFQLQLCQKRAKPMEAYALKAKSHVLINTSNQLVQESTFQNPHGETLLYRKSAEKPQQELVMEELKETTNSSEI
Experiment: Radioligand competition binding at NPFF2-R
Settings: [3H]EYF, transfected CHO cell membranes; read-out: Receptor Binding, Ki ± SEM NPFF2-R
PROPERTY MEASURED: Ki

1. N=C(N)Nc1ccc(C(=C2CCN(Cc3ccccc3)CC2)c2cccc(O)c2)cc1 [Compound 13b]; 6.02 µM
2. N=C(N)Nc1cccc(C(=C2CCN(Cc3ccccc3)CC2)c2ccccc2)c1 [Compound 22a]; 2.57 µM
3. N=C(N)Nc1ccc(C(=C2CCN(Cc3ccccc3)CC2)c2ccccc2)cc1 [Compound 22b]; 0.272 µM
4. N=C(N)Nc1cccc(C(=C2CCN(Cc3ccccc3)CC2)c2cccc(O)c2)c1 [Compound 13a]; 7.08 µM
5. N=C(N)Nc1cccc(C(=C2CCN(Cc3ccccc3)CC2)c2ccc(O)cc2)c1 [Compound 14a]; > 10 µM

###

Target: DOR (Homo sapiens)
Test: [35S]GTPγS functional assay (agonist mode) at DOR
Assay type: biochemical
Conditions: agonist mode, standard DPDPE; read-out: [35S]GTPγS DOR EC50 ± SEM
PROPERTY MEASURED: EC50 (nM)

1. N=C(N)Nc1ccc(C(=C2CCN(Cc3ccccc3)CC2)c2ccc(O)cc2)cc1 [Compound 14b]; 227

###

Assay: In vivo pharmacokinetic study, intravenous
Set-up: species or system Sprague Dawley rats
Conditions: male, Sprague Dawley, plasma, iv; 5 mg/kg i.v., rat, mean (n = 6) ± SEM; read-out: k (elimination rate constant) (converted)
PROPERTY MEASURED: k el

1) N=C(N)Nc1ccc(C(=C2CCN(Cc3ccccc3)CC2)c2ccccc2)cc1 [Compound 22b]; 5.56e-05 s⁻¹

###

Assay: In vivo pharmacokinetic study, intravenous
Set-up: species or system Sprague Dawley rats
Settings: male, Sprague Dawley, plasma, iv; 5 mg/kg i.v., rat, mean (n = 6) ± SEM
Method: In vivo pharmacokinetic study. For the evaluation of the in vivo pharmacokinetic parameters of 22b, a pharmacokinetic study was performed in healthy male adult Sprague Dawley rats with in-dwelling jugular catheters weighing 225 ± 25 g. […] All samples were stored at −80 °C until they were further analyzed. Collected plasma samples were analyzed using a validated UPLC-MS/MS method, and non-compartmental analysis of the plasma concentration data was performed using Phoenix® 6.4. […]
PROPERTY MEASURED: C0 (ng/mL)

1. N=C(N)Nc1ccc(C(=C2CCN(Cc3ccccc3)CC2)c2ccccc2)cc1 [Compound 22b]; 9150
